Taken from the Kinase Knowledgebase extract (Sharma et al. 2016).

# study-system: MAPK14 (human)
# experimental-protocol: Inhibition of LPS Induced TNF-alpha Production in THP1 Cells
observable: IC50 (nM)

smiles_notation=O=c1c(-c2ccc(F)cc2)c(-c2ccnc(NC3CC3)n2)n2n1CCC2 study_system="MAPK14 (human)" observable=IC50 measurement=78

1: O=c1c(-c2ccc(F)cc2)c(-c2ccnc(NCc3ccccc3)n2)n2n1CCC2
2: O=c1c(-c2ccc(F)cc2)c(-c2ccnc(NCc3cccnc3)n2)n2n1CCC2
q: Dear colleague, could you let me know whether 1 or 2 has the lower recorded IC50? Thanks. Write down the label attached to your selection.
a: 1
(1: 74 nM, 2: 121 nM)
